Hey, just so you know, these numbers are from ChEMBL document CHEMBL1132421.

Test system: chymotrypsin
assay_method_text: Percentage of intact compound after chymotrypsin cleavage at 37 degree C for 120 min
Type: ADME
run_conditions: read-out: Stability
measured_metric: remaining at 2 h (%)

A = CCOC(=O)[C@H](Cc1ccccc1)NC(=O)C(C)(C)C(NC(=O)c1ccc(C#N)cc1)C(C)C (stereo not given in full)
B = CCCCCCC(NC(=O)c1ccc(C#N)cc1F)C(C)(C)C(=O)N[C@@H](Cc1ccccc1)C(=O)OCC (stereo not given in full)
C = CCCCCCCCCCC(NC(=O)c1ccc(C#N)cc1)C(C)(C)C(=O)N[C@@H](Cc1ccccc1)C(=O)OCC (stereo not given in full)
[in] Sort ascending by remaining at 2 h. Please list each label once, in the requested order.
[out] B, C, A
(B: 6%, C: 16%, A: 90%)
